Target: T1, EsCas13d, nuclease-dead (Eubacterium siraeum, UniProt B0MS50, R295A;H300A;R849A;H854A)
T1 sequence: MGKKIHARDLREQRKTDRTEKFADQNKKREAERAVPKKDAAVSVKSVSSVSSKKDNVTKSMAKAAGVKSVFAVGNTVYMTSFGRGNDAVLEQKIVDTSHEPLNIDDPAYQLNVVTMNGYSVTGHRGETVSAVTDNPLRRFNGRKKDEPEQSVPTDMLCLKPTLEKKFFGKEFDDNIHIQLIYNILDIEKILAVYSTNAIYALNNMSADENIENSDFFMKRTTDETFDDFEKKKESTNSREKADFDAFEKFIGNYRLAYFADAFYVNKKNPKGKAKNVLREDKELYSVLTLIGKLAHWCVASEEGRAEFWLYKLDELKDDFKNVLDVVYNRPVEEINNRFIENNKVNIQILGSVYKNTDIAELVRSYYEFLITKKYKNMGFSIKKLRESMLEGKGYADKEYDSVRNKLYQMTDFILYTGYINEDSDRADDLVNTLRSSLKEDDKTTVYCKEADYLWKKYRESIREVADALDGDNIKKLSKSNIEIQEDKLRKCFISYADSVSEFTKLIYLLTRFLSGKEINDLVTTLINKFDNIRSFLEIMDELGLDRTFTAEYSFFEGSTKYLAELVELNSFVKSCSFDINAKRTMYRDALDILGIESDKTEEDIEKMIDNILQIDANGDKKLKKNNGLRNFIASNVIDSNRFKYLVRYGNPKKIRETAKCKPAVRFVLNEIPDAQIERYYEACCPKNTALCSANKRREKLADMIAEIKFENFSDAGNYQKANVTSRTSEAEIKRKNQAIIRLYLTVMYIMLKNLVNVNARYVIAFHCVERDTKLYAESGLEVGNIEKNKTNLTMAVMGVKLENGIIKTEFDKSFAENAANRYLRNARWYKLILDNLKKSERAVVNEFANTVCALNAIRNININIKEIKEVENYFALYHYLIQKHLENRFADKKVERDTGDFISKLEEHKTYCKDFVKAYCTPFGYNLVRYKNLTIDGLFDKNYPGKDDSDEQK
Experiment: crRNA (strand 1, pre-loaded); Mg2+; 40 mM Tris-HCl pH 7.5, 150 mM NaCl, 6 mM MgCl2, 1 mM DTT, 0.1% Tween-20, 0.2 mg/ml BSA; 25 C; 10 min per concentration, then washed
Conditions: tags: His6-TwinStrep-SUMO cleaved; N-terminal SNAP kept (SNAP-Surface 488); label: 3' end held by stalled T7 RNA polymerase
# label = y if Kd < 30 nM else n

BINDER	CATEGORY LABEL
target 1 MT 5'PFS UUG 3'PFS UCU (mixed) RNA 1: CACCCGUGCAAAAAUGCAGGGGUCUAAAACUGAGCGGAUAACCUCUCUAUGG RNA 2: GGGAAUGGAUCCACAUCUACGAAUUCUUGCCAUAGAGAGGUUAUCCGCUCAUCUAGAUCGGAAGAGCACACGU	y
target 1 MT 5'PFS AGA 3'PFS UCG (mixed) RNA 1: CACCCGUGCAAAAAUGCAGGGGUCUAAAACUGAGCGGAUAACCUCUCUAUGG RNA 2: GGGAAUGGAUCCACAUCUACGAAUUCAGACCAUAGAGAGGUUAUCCGCUCAUCGAGAUCGGAAGAGCACACGU	n
target 1 del14 (mixed) RNA 1: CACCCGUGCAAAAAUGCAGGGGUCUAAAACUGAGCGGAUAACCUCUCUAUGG RNA 2: GGGAAUGGAUCCACAUCUACGAAUUCGUACCAUAGAGGGUUAUCCGCUCACCGAGAUCGGAAGAGCACACGU	y
target 1 insU 3' of 21,insA 3' of 6 (mixed) RNA 1: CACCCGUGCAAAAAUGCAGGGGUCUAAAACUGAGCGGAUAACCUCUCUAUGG RNA 2: GGGAAUGGAUCCACAUCUACGAAUUCGUACCUAUAGAGAGGUUAUCCAGCUCACCGAGAUCGGAAGAGCACACGU	y
target 3 U2G,U8C (mixed) RNA 1: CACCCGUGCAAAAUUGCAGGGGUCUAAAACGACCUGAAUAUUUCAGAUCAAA RNA 2: GGGAAUGGAUCCACAUCUACGAAUUCGUUUUUGAUCUGAAAUACUCAGGGCUGCAGAUCGGAAGAGCACACGU	y
target 2 MT 5'PFS AUC 3'PFS CAU (mixed) RNA 1: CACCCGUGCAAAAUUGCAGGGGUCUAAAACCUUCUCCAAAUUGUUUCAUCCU RNA 2: GGGAAUGGAUCCACAUCUACGAAUUCAUCAGGAUGAAACAAUUUGGAGAAGCAUAGAUCGGAAGAGCACACGU	n
target 2 MT 5'PFS GUA 3'PFS ACU (mixed) RNA 1: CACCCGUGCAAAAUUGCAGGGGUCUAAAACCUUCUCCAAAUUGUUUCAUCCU RNA 2: GGGAAUGGAUCCACAUCUACGAAUUCGUAAGGAUGAAACAAUUUGGAGAAGACUAGAUCGGAAGAGCACACGU	y
target 1 C2U,G12A (mixed) RNA 1: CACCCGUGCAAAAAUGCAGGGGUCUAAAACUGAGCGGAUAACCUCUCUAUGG RNA 2: GGGAAUGGAUCCACAUCUACGAAUUCGUACCAUAGAGAGAUUAUCCGCUUACCGAGAUCGGAAGAGCACACGU	y
target 1 C6G,U8C (mixed) RNA 1: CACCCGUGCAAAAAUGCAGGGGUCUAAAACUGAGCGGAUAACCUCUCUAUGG RNA 2: GGGAAUGGAUCCACAUCUACGAAUUCGUACCAUAGAGAGGUUACCGGCUCACCGAGAUCGGAAGAGCACACGU	y
target 1 insG 3' of 16,insG 3' of 11 (mixed) RNA 1: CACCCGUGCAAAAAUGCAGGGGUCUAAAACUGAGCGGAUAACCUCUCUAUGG RNA 2: GGGAAUGGAUCCACAUCUACGAAUUCGUACCAUAGAGGAGGUGUAUCCGCUCACCGAGAUCGGAAGAGCACACGU	n
target 1 insA 3' of 17,insU 3' of 5 (mixed) RNA 1: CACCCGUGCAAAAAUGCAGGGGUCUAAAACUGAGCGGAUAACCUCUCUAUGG RNA 2: GGGAAUGGAUCCACAUCUACGAAUUCGUACCAUAGAAGAGGUUAUCCGUCUCACCGAGAUCGGAAGAGCACACGU	y
